Reference for the values: paper PMC4266452

EXPERIMENT_SUMMARY: Plasma concentration (Cmax) during the TQT study, total and calculated free
Type: in vivo, human
MEASUREMENT_PARAMETERS: Cmax low; calculated with PPB
Please go through the items and note down their Cmax FREE.

Report Cmax FREE, nothing else, for this compound: CC1=NN(c2ccc(C)c(C)c2)C(=O)/C1=N\Nc1cccc(-c2cccc(C(=O)O)c2)c1O [Eltrombopag]
25.6 ng/mL

Report Cmax FREE, nothing else, for this compound: Cc1cn([C@@H]2C[C@@H](O)[C@H](CO)O2)c(=O)[nH]c1=O [Telbivudine]
2127.4 ng/mL

Report Cmax FREE, nothing else, for this compound: C[C@@H](O)[C@H]1C(=O)N2C(C(=O)O)=C(S[C@@H]3CN[C@H](CNS(N)(=O)=O)C3)[C@H](C)[C@H]12 [Doripenem]
19299 ng/mL

Report Cmax FREE, nothing else, for this compound: Nc1nnc(-c2cccc(Cl)c2Cl)c(N)n1 [Lamotrigine]
3249 ng/mL

Report Cmax FREE, nothing else, for this compound: CN1CC(=O)N2[C@H](c3ccc4c(c3)OCO4)c3[nH]c4ccccc4c3C[C@@H]2C1=O [Tadalafil]
52.98 ng/mL

Report Cmax FREE, nothing else, for this compound: CN(C)CC(c1ccc(O)cc1)C1(O)CCCCC1 (stereo not drawn) [Desvenlafaxine]
329.47 ng/mL

Report Cmax FREE, nothing else, for this compound: COC[C@@H](NC(C)=O)C(=O)NCc1ccccc1 [Lacosamide]
10340 ng/mL

Report Cmax FREE, nothing else, for this compound: Cc1ccc(O)c([C@H](CCN(C(C)C)C(C)C)c2ccccc2)c1 [Tolterodine]
0.337 ng/mL

Report Cmax FREE, nothing else, for this compound: Cc1c(O)cccc1C(=O)N[C@@H](CSc1ccccc1)[C@H](O)CN1C[C@H]2CCCC[C@H]2C[C@H]1C(=O)NC(C)(C)C [Nelfinavir]
34.86 ng/mL
